read-out: E-selectin (Homo sapiens) (UniProt P16581); experiment: BSK_SAg_Eselectin: BioMAP Diversity Plus: SAg Assay for Eselectin Biomarker Activity (AID 2283091); details: primary human HUVEC with PBMC; actives raise or lower the signal
Sequence (P16581 whole entry, looked up): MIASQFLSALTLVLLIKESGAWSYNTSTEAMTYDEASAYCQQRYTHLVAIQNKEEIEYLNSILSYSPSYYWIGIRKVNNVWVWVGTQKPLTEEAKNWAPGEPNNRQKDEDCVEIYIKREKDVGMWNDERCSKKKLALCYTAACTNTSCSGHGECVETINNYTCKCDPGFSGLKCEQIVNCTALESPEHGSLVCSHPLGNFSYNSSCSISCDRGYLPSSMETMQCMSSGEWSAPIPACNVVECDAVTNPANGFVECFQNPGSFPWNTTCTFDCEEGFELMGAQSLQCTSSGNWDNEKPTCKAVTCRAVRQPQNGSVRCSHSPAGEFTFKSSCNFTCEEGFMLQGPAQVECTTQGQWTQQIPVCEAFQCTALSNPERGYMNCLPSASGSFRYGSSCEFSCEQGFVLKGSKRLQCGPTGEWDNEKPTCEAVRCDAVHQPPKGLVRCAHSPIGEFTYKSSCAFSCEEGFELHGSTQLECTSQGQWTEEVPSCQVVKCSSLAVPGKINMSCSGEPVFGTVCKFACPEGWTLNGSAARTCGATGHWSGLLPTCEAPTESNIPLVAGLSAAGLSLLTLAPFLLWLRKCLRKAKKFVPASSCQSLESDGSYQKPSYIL
Active and inactive are the calls of the source. Rule for the calls: active = hit-call score of the fitted dose curve at least 0.9, where 1 is the maximum; inactive = score below 0.9.
Outcome field: choose from active, inactive

Solved entries (count: 5):
# MOLECULE, CLASS
data = [
    ("CCCCCCCCCCCCc1cccc(S(=O)(=O)O)c1", "inactive"),
    ("OC(Cc1ccccc1Cl)(Cn1[nH]cnc1=S)C1(Cl)CC1 (centres undefined)", "inactive"),
    ("O=C(O)COc1cc(Cl)c(Cl)cc1Cl", "inactive"),
    ("CCCCCCCCCCCCN(C)C", "inactive"),
    ("OCCCCO", "inactive"),
]

What did this assay record as the result for C[C@]12CC[C@@H](O)C[C@@H]1CC[C@@H]1[C@@H]2CC[C@]2(C)C(=O)CC[C@@H]12 ? inactive

# outcome recorded in this test, key = CC(C=O)Cc1ccc2c(c1)OCO2 (centres undefined) inactive

What call does the record list for O=C(O)C1(c2ccc3c(c2)OC[C@H](Cc2ccc(-c4ccccc4)cc2)[C@H]3O)CCCC1 ? active

---

target: human p21 Activated Kinase 4 (PAK4), PAK4 (gene 10298); test: NVS_ENZ_hPAK4: NovaScreen (NVS) Enzymatic Assay for human p21 Activated Kinase 4 (PAK4) (AID 2283189)
Records with an inconclusive call do not appear. Calls of active or inactive are those of the source. The calls were made as follows: active = hit-call score of the fitted dose curve at least 0.9, where 1 is the maximum; inconclusive = response in the unintended direction; inactive = score below 0.9.
Outcome (select one): active, inactive

# STRUCTURE, CLASS
records = [
    ("O=C(N[C@H]1CN2CCC1CC2)c1ccc2c(c1)OCCO2", "inactive"),
    ("CC(C)O.CC(C)O.OCCN(CCO)CCO.OCCN(CCO)CCO.[Ti]", "active"),
    ("Clc1cccc(Cl)c1Cl", "inactive"),
]

Query molecule follows.
# fetch the recorded call for N#Cc1cccnc1 here inactive

---

assay: ATG_ISRE_CIS: Attagene CIS-FACTORIAL HepG2 Assay for human Interferon Regulatory Factor 1 (IRF1) binding to an Interferon-Stimulated Response Element (ISRE) (AID 2282948); conditions: HepG2 ISRE cis-reporter (Attagene), mRNA transcription readout; actives raise or lower the signal
Active and inactive are the calls of the source. Rule for the calls: active = hit-call score of the fitted dose curve at least 0.9, where 1 is the maximum; inactive = score below 0.9.
Pick from true (active), false (inactive) when you respond.

Example entries begin here.
# COMPOUND, CLASS
measured = [
    ("c1cc[c]([Sb]([c]2ccccc2)[c]2ccccc2)cc1", "false"),
    ("CCOC(=O)C(SP(=S)(OC)OC)c1ccccc1 (centres undefined)", "false"),
]

How did this test come out for Clc1ccc(C(Cl)(Cl)Cl)cn1 ? false

Tell me the assay call for CC(C)(c1ccc(O)c(-c2ccccc2)c1)c1ccc(O)c(-c2ccccc2)c1 please. false

Give the logged outcome of this assay for the following compound: O=C(Cl)OCCOCCOC(=O)Cl false

Could you check what this test reported for CCOP(=S)(OCC)SCSc1cc(Cl)ccc1Cl ? false

State the result this test recorded for C=CCCl . false

---

read-out: Transforming growth factor beta 1 (TGFb1), TGFB1 (gene 7040); test: BSK_KF3CT_TGFb1: BioMAP Diversity Plus: KF3CT Assay for Transforming growth factor beta 1 (TGFb1) Biomarker Activity (AID 2283072); details: primary human keratinocytes with fibroblasts; actives raise or lower the signal
Calls of active or inactive are those of the source. How the source made its calls: active means hit-call score of the fitted dose curve at least 0.9, where 1 is the maximum; inactive means score below 0.9.
Please reply with one of these outcomes: active, inactive

# COMPOUND, CLASS
data = [
    ("CCCCCCCCCCCCc1cccc(S(=O)(=O)O)c1", "active"),
    ("C[C@]12CC[C@@H](O)C[C@@H]1CC[C@@H]1[C@@H]2CC[C@]2(C)C(=O)CC[C@@H]12", "inactive"),
    ("OC(Cc1ccccc1Cl)(Cn1[nH]cnc1=S)C1(Cl)CC1 (stereo not drawn)", "active"),
    ("CCOC(=O)C(SP(=S)(OC)OC)c1ccccc1 (stereo not drawn)", "active"),
]

How was CCOP(=S)(OCC)SCS(=O)(=O)C(C)(C)C classified in this test? inactive

For O=C(CCl)NCO , what call appears in the results of this test? inactive

In this assay, the call recorded for OCCN(CCO)CCO was what? inactive

Per the records of this test, what outcome belongs to CC1(C)[C@H](C(=O)O[C@H](C#N)c2cccc(Oc3ccccc3)c2)[C@@H]1/C=C(\Cl)C(F)(F)F ? inactive

# lookup: test call for O=S(=O)(c1ccc(Cl)cc1)c1cc(Cl)c(Cl)cc1Cl active

Lab log entry: Oc1c(Cl)cc(Cl)cc1Cl — outcome as called in the assay? inactive

Record lookup: outcome of this test for COCC(=O)N(c1c(C)cccc1C)[C@H](C)C(=O)OC ? inactive

For CCOP(=O)(OCC)SCCSCC , which call appears in the assay record? inactive

// outcome(item) with item = NC(=O)CCl inactive
